TARGET OR TEST SYSTEM: T1, feline OSMR on feline Fcwf-4 cells (feline, UniProt A0ABI8A843 28-960)
T1 sequence: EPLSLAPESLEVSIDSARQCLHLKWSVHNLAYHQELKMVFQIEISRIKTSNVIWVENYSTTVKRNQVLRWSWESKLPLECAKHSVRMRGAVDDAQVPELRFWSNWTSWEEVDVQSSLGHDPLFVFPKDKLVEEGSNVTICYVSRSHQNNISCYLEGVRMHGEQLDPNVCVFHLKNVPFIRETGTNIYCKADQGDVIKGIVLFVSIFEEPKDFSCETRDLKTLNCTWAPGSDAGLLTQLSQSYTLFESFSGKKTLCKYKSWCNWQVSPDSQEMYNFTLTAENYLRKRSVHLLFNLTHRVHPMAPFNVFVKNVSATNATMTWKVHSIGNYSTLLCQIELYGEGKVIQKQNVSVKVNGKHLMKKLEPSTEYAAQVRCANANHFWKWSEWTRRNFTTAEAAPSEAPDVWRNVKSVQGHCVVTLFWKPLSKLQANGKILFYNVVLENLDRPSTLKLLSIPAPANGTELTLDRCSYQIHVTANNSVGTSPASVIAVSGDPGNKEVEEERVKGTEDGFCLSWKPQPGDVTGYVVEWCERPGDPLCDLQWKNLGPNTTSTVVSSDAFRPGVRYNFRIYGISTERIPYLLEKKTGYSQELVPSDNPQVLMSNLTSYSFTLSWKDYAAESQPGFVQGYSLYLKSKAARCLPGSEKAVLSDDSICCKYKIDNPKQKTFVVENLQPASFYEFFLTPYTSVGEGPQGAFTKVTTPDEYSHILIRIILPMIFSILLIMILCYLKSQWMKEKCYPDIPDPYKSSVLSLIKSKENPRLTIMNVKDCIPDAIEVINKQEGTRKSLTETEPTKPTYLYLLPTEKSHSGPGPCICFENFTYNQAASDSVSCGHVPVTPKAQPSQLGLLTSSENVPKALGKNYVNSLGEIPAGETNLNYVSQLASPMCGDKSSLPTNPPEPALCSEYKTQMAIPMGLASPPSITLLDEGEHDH
TEST: cell-based or functional assay
RESULT TYPE: % inh of feline IL-31 pSTAT3 signaling, feline Fcwf-4 cells (% inh @ 75 µg/ml)

[
  {
    "BINDER": "Mu_02D09 (antibody, V domains shown, Mouse hybridoma IgG; also called mouse anti-OSMR 02D09) VH: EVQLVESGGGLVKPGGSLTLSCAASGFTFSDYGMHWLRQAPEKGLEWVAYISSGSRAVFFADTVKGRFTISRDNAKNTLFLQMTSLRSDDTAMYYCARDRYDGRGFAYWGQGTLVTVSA VL: DIVLTQSPATLSVTPGDSVSLSCRASQSISNNLHWYQQTSHESPRLLITYASQSISGIPSRFSGSGSGTDFTLSINSVETEDFGMYFCQQSNSWPLTFGAGTKLELK",
    "OBS VALUE": 67
  },
  {
    "BINDER": "Mu_10F07 (antibody, V domains shown, Mouse hybridoma IgG) VH: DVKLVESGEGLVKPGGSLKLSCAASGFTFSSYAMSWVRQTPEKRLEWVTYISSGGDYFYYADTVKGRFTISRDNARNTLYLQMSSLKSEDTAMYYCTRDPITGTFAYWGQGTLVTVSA VL: DIQMTQTTSSLSASLGDRVTISCRASQDITNYLNWYQQKPDGTVKLLIYYTSTLHSGVPSRFSGSGSGTDFSLTISNLEQEDIATYFCQQGHMLPWTFGGGTKLEIK",
    "OBS VALUE": 91
  },
  {
    "BINDER": "Mu_14C04 (antibody, V domains shown, Mouse hybridoma IgG) VH: EVQLQESGAELVKPGASVKISCKASGYAFSNYWMNWMKQRPGKGLEWIGQIYPGHVNTNYNGNFKDKATLTADKSSSTAYMQLSSLTSEDSAVYFCARSADNSGFVLFAYWGQGTLVTVS VL: DIVLTQSPASLAVSLGQRATISCRASKSVSTSGYSYLHWYQQKPGQPPKLLIFLASNLESGVPARFSGSGSGTDFTLNIHPVEEEDAATYYCQHSRELPLTFGAGTKLELK",
    "OBS VALUE": 0
  },
  {
    "BINDER": "Mu_09E09 (antibody, V domains shown, Mouse hybridoma IgG) VH: DVKLVESGEGLVKPGGSLKLSCAASGFTFSSYAMSWVRQTPEKRLEWVAYISSGGDYIYYADTVKGRFTISRDNARNTLYLQMSSLKSEDTAMYYCTRDPITGTFAYWGQGTLVTVSA VL: DLQMTQTTSSLSASLGDRVTISCRASQDINNYLNWYQQKPDGTVKLLIYYTSTLHSGVPSRFSGSGSGTDYSLTISNLEQEDIATYFCQQGNTLPWTFGGGTKLEIK",
    "OBS VALUE": 63
  }
]
